These measurements were taken from the supplement of paper PMC10567573.

B1: PHTF1 (parent)
chain: RVKLISNKGTETDNDPSCVHPIIK

variants of: B1; test: protein stability index of a GFP-peptide fusion (GPS, HEK-293T) (PSI 1-6); higher = more stable; details: c terminus: a fixed tail appended;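 note: lentivirally expressed fusions sorted by FACS into six bins by GFP to DsRed ratio, PSI derived from sequencing read proportions per bin multiplied by bin number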
Assign 1 whenever protein stability index does not fall below 4; assign 0 whenever it does.

sequence.text	category.label
RVKLISNWGTETDNDPSCVHPIIK [K8W]	0
RVKLISNKGTETDNDPSGVHPIIK [C18G]	1
RVKLIDNKGTETDNDPSCVHPIIK [S6D]	1
RVKLISNKVTETDNDPSCVHPIIK [G9V]	1
RVKLISNKGTETDNDPSCVIPIIK [H20I]	0

query: Can RVKLISNKRTETDNDPSCVHPIIK [G9R] be said to have protein stability index at or above 4?
result: 0

query: Would you say RVKLILNKGTETDNDPSCVHPIIK [S6L] shows protein stability index at minimum 4?
result: 0

query: Can RVKLISNKGTECDNDPSCVHPIIK [T12C] be said to have protein stability index at or above 4?
result: 0

query: # check: protein stability index of SVKLISNKGTETDNDPSCVHPIIK [R1S] is greater than or equal to 4
result: 1

query: Could you verify whether the entry RVKLISNKGEETDNDPSCVHPIIK [T10E] shows protein stability index of no less than 4?
result: 1

query: I'd appreciate it if you could say whether RVKEISNKGTETDNDPSCVHPIIK [L4E] has protein stability index at least equal to 4.
result: 1

query: Can RVKLISNMGTETDNDPSCVHPIIK [K8M] be said to have protein stability index at or above 4?
result: 0

query: Decide: protein stability index of RVKLNSNKGTETDNDPSCVHPIIK [I5N] >= 4?
result: 1

query: Assess whether reported protein stability index for RVKLISNKGTETSNDPSCVHPIIK [D13S] sits at 4 or higher.
result: 0

query: Assess whether reported protein stability index for RVKLISNKGWETDNDPSCVHPIIK [T10W] sits at 4 or higher.
result: 0

query: Check this variant for protein stability index at or above 4: RDKLISNKGTETDNDPSCVHPIIK [V2D]
result: 1

query: Textbook exercise: given the entry RPKLISNKGTETDNDPSCVHPIIK [V2P] , state whether its protein stability index is greater than or equal to 4.
result: 1

query: # bool: protein stability index of RVKLISKKGTETDNDPSCVHPIIK [N7K] >= 4
result: 1

query: Check the entry RVKLISNKGTETMNDPSCVHPIIK [D13M] : does protein stability index equal or exceed 4?
result: 0
